# Tested on: Botulinum neurotoxin type A light chain protease [Clostridium botulinum A str. ATCC 3502]
# Test Details: inhibition of botulinum toxin A LC protease – biochemical, flow cytometry, cherry pick 2, confirmation (AID 602325)
# Test Conditions: multiplex microsphere protease cleavage assay, at 10 µM, stronger effect = higher value
Some of the results follow.
Value Kind: inhibition (%)
Could you give me the number in %? Just the number is fine.

Known results for compounds:
Cc1cc2cc(CNC(=O)c3ccc(S(=O)(=O)N4CCOCC4)cc3)ccc2[nH]1
3.8
Cc1cc2ccccc2n1CCNC(=O)COc1ccc2ccccc2c1
5.2
COc1ccc(-c2cc3c(c4c2ccn4C)C2CCC3C2)cn1 (centres undefined)
25.2

Note: attention shifts to another entry.
## Input Request - read-out inhibition | tested on Botulinum neurotoxin type A light chain protease [Clostridium botulinum A str. ATCC 3502] | compound `O=C(CN1CCN(c2ccccc2O)CC1)NC(=O)NCc1ccccc1`
## Output 1.6
